Give selectivity ratio at 72 h for every item shown.
test details: Epimastigote growth inhibition
Assay type: cell-based
test context: Trypanosoma cruzi
Give bare numbers.

| entry smiles | recorded result |
| --- | --- |
| N#Cc1cnc2ccc(Cl)cc2c1Nc1cccc(F)c1 | 4 |
| N#Cc1cnc2ccc(Cl)cc2c1Nc1cccc(Cl)c1 | 4.2 |

# input for lookup
The recorded selectivity ratio at 72 h for entry N#Cc1cnc2ccc(Cl)cc2c1Nc1ccccc1Cl equals 1.19

* * *

Give inhibition of growth at 10 µM for every item shown.
Test system: T. cruzi Y amastigotes
test details: Intracellular amastigotes in infected cardiomyocytes
Type: cell-based
test context: Trypanosoma cruzi, Cardiomyocyte, 72 h, read-out: Percentage of amastigote growth inhibition, 72 h of treatment with 10 μM of compounds
Answers are plain numbers, in %.

| compound | recorded result |
| --- | --- |
| N#Cc1cnc2ccc(Cl)cc2c1Nc1ccccc1Cl [Compound 1d] | 57.6 |
| N#Cc1cnc2ccc(Cl)cc2c1Nc1ccccc1 [Compound 1a] | 45.5 |
| N#Cc1cnc2ccc(Cl)cc2c1Nc1cccc(Cl)c1 [Compound 1e] | 55.4 |

For each entry beneath this line, provide reported inhibition of growth at 10 µM.
1. N#Cc1cnc2ccc(Cl)cc2c1Nc1cccc(F)c1 [Compound 1b]
2. O=C(Cn1ccnc1[N+](=O)[O-])NCc1ccccc1 [Bz, benznidazole, reference compound]
3. N#Cc1cnc2ccc(Cl)cc2c1Nc1cccc(Br)c1 [Compound 1f]
4. N#Cc1cnc2ccc(Cl)cc2c1Nc1ccc(F)cc1 [Compound 1c]

Data returned:
53.2
99.8
60.4
52.5

* * *

test details: Cytotoxicity on primary cardiomyocytes
Type: cell-based, mice
test context: mouse, primary embryonic cardiomyocytes
observation type: CC50 at 72 h (µM)
Answers are plain numbers, in µM.

| entry smiles | CC50 at 72 h [µM] |
| --- | --- |
| N#Cc1cnc2ccc(Cl)cc2c1Nc1cccc(Cl)c1 | 65.2 |

For each entry beneath this line, provide reported CC50 at 72 h.
1. N#Cc1cnc2ccc(Cl)cc2c1Nc1cccc(F)c1
2. N#Cc1cnc2ccc(Cl)cc2c1Nc1ccccc1Cl

Data returned:
1. 67
2. 47.7

* * *

System: T. cruzi Y epimastigote forms
test details: Epimastigote growth inhibition
Assay type: cell-based
test context: Trypanosoma cruzi, 72 h, read-out: IC50 (Concentration that inhibits the growth of 50% of T. cruzi Y epimastigote forms within 72 h), 72 h, in the presence of 150 μM of heme, Probit
Give pIC50 for every item shown.
Give bare numbers, as −log10 of the molar value.

Some solved cases for reference:
| molecule | pIC50 |
| --- | --- |
| N#Cc1cnc2ccc(Cl)cc2c1Nc1ccc(F)cc1 | 5.06 |
| N#Cc1cnc2ccc(Cl)cc2c1Nc1cccc(F)c1 | 4.78 |
| N#Cc1cnc2ccc(Cl)cc2c1Nc1ccccc1Cl | 4.40 |
| O=C(Cn1ccnc1[N+](=O)[O-])NCc1ccccc1 [Bz, benznidazole, reference compound] | 5.25 |
| N#Cc1cnc2ccc(Cl)cc2c1Nc1cccc(Cl)c1 | 4.81 |
| N#Cc1cnc2ccc(Cl)cc2c1Nc1ccccc1 | 4.75 |

# input for lookup
Known value: T. cruzi Y epimastigote forms pIC50 of the molecule N#Cc1cnc2ccc(Cl)cc2c1Nc1cccc(Br)c1 equals 4.67

* * *

Tested on: Cardiomyocytes
test details: Cytotoxicity on primary cardiomyocytes
Format: cell-based, mice
test context: read-out: CC50 Vero/CM; cardiomyocytes, with 30 μM of heme, 72 h, resazurin
observation type: CC50

The recorded CC50 for entry O=C(Cn1ccnc1[N+](=O)[O-])NCc1ccccc1 [Bz, benznidazole, reference compound] equals > 100 µM
